- Protocol Notes: NCI Yeast Anticancer Drug Screen. Data for the bub3 strain (AID 167)
- Reported Conditions: S. cerevisiae bub3 mutant strain, at 50.0 µM, hits give high values
Compounds without any hit were thinned out: in the full panel of roughly 79,000, 15% have a hit.
Assay Readout: growth inhibition (%)
Enter your answer as a number in %; do not include the unit.

Worked cases, growth inhibition given:
>  <Compound>
CC(N)CN.CC(N)CN.[Cl-].[O]=[Os+2]=[O] (configuration not stated)

>  <Measurement Unit>
%

>  <growth inhibition>
-16.1

$$$$
>  <Compound>
CC(C)c1oc(=O)cc2c1C(O)C1OC(=O)C3(C)C(O)C4OC4C2(C)C13 (configuration not stated)

>  <Measurement Unit>
%

>  <growth inhibition>
17.4

$$$$
>  <Compound>
O=C(O)C1C2C=Cc3ccccc3C21 (configuration not stated)

>  <Measurement Unit>
%

>  <growth inhibition>
-6.2

$$$$

The reported value for `C/C(=N\NC(=S)N1CC2CCC(CC2)C1)c1nccs1` in terms of growth inhibition is 86.5

The reported value for `COc1ccc(/C=C/c2cc(OC)c3c(c2)OCO3)cc1O` in terms of growth inhibition is 1.7

###

- Protocol Notes: NCI Yeast Anticancer Drug Screen. Data for the sgs1 mgt1 strain (AID 161);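 further: 0% = growth of cultures given vehicle only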
- Reported Conditions: S. cerevisiae sgs1 mgt1 strain, at 50.0 µM (retest, dose inferred, filed as 5.0), hits give high values
This is part of a sample that, as a whole, favours compounds with a hit. Of some 79,000 tested, about 15% had one in any assay.
Assay Readout: growth inhibition (%)
Enter your answer as a number in %; do not include the unit.

Worked cases, growth inhibition given:
>  <Molecule>
N#CC(Cl)(Cl)CCl

>  <Measurement Unit>
%

>  <growth inhibition>
42

$$$$
>  <Molecule>
O=c1ccc(N=Cc2ccc(N(CCCl)CCCl)cc2)ccc1O

>  <Measurement Unit>
%

>  <growth inhibition>
98

$$$$
>  <Molecule>
CC(=O)[C-](I)C(C)=O.CC(=O)[C-](I)C(C)=O.CC(=O)[C-](I)C(C)=O.[Ru+3]

>  <Measurement Unit>
%

>  <growth inhibition>
89

$$$$
>  <Molecule>
COC(=O)c1ccc([As]=O)cc1N (stereo unspecified)

>  <Measurement Unit>
%

>  <growth inhibition>
4

$$$$
>  <Molecule>
C[CH2][Sn]([CH2]C)([CH2]C)[CH2]C

>  <Measurement Unit>
%

>  <growth inhibition>
58

$$$$
>  <Molecule>
CCCCCCCCN1CCN(CCCCCCCC)C2CCCCC21 (stereo unspecified) (tested in a mixture with another compound)

>  <Measurement Unit>
%

>  <growth inhibition>
94

$$$$

The reported value for ClC1=C(Cl)C2(Cl)C(Cl)CC1(Cl)C2(Cl)Cl (stereo unspecified) in terms of growth inhibition is -24

The reported value for `CC(=O)[O-].O=C([CH-]C(=O)c1ccccc1)c1ccccc1.O=C([CH-]C(=O)c1ccccc1)c1ccccc1.[Dy+3]` in terms of growth inhibition is 100

The reported value for `[Cl][Hg][c]1ccco1` in terms of growth inhibition is 100

The reported value for `O=S(=O)(F)c1ccc(Cl)cc1` in terms of growth inhibition is 92

The reported value for `Oc1c(Cl)c(Cl)c(O)c(Cl)c1Cl` in terms of growth inhibition is 99

###

- Protocol Notes: NCI Yeast Anticancer Drug Screen. Data for the sgs1 mgt1 strain (AID 161);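 further: 0% = growth of cultures given vehicle only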
- Reported Conditions: S. cerevisiae sgs1 mgt1 strain, at 50.0 µM, hits give high values
Compounds without any hit were thinned out: in the full panel of roughly 79,000, 15% have a hit. Calls of active or inactive are those of the source. Rule as the data show it: active = growth inhibition above about 70%; inactive = the rest.
Recorded measurements of growth inhibition, one per entry

The reported value for `CC(C)OC(=O)Nc1cccc(Cl)c1` in terms of growth inhibition is 23.9% (inactive)

###

- Protocol Notes: NCI Yeast Anticancer Drug Screen. Data for the mlh1 rad18 strain (AID 175)
- Reported Conditions: S. cerevisiae mlh1 rad18 strain growth inhibition; at 5.0 µM (retest, dose inferred, filed as 0.5)
About 79,000 compounds went through this panel and 15% of them were active in at least one assay; those are over-represented in the sample as a whole. Calls of active or inactive are those of the source. Cut-off read from the data, not from the text of the source: active = growth inhibition above about 70%; inactive = the rest.
Pick one and only one: active, inactive

Worked cases, answers included:
>  <Compound>
ClCCN1CCOCC1

>  <Assigned Label>
active

$$$$
>  <Compound>
CC(=O)OCC1(N2CCCC2)CCCCC1

>  <Assigned Label>
inactive

$$$$
>  <Compound>
CCOC(=O)c1ccc(N=Cc2ccc(N(CCCl)CCCl)cc2C)cc1

>  <Assigned Label>
inactive

$$$$
>  <Compound>
CCCCCCCCCCCCCCCCCC[N+](C)(C)C (tested in a mixture with another compound)

>  <Assigned Label>
active

$$$$

What was the test verdict on `CCc1cc(C)cc2[n+]1CC=C2` ?
inactive

What was the test verdict on `O=NN(CC(=O)O)c1ncccn1` ?
inactive

###

- Protocol Notes: NCI Yeast Anticancer Drug Screen. Data for the bub3 strain (AID 167)
- Reported Conditions: S. cerevisiae bub3 mutant strain, at 50.0 µM, hits give high values
About 79,000 compounds went through this panel and 15% of them were active in at least one assay; those are over-represented in the sample as a whole.
Recorded measurements of growth inhibition, one per entry
Enter your answer as a number in %; do not include the unit.

>  <Molecule>
COc1cc(=O)oc(/C=C/C=C/C=C/C(C)=C\C2(C)OC(C)C(C)(O)C2O)c1C (stereo unspecified)

>  <Assay Readout>
growth inhibition

>  <Numeric Value>
-20.4

$$$$
>  <Molecule>
O=C1C=C2c3ccccc3CC(C(=O)O)C2CC1 (stereo unspecified)

>  <Assay Readout>
growth inhibition

>  <Numeric Value>
2.3

$$$$
>  <Molecule>
CCCCCOP(=O)(OCCCCC)C(=O)Nc1ccc([N+](=O)[O-])cc1

>  <Assay Readout>
growth inhibition

>  <Numeric Value>
-1.8

$$$$

The reported value for CCC(Cl)COP(=O)(OCC(Cl)CC)O/C(C)=C(\C)OP(=S)(OCC(Cl)CC)OCC(Cl)CC (stereo unspecified) in terms of growth inhibition is 98.8

The reported value for `OC[CH2][Hg][I]` in terms of growth inhibition is 99.8

The reported value for CCCCCCN1C(C)C1C(C)C (stereo unspecified) in terms of growth inhibition is -4.15

###

- Protocol Notes: NCI Yeast Anticancer Drug Screen. Data for the mec2-1 strain (AID 157)
- Reported Conditions: S. cerevisiae mec2-1 strain, at 50.0 µM (retest, dose inferred, filed as 5.0), hits give high values
Compounds without any hit were thinned out: in the full panel of roughly 79,000, 15% have a hit. The source made the active and inactive calls. Cut-off read from the data, not from the text of the source: active = growth inhibition above about 70%; inactive = the rest.
Assay Readout: growth inhibition

Worked cases, growth inhibition given:
>  <Compound>
[Cl][Hg][c]1ccc(Cl)s1

>  <growth inhibition>
99% (active)

$$$$
>  <Compound>
CN(C)C(=S)[S][Hg][c]1ccccc1

>  <growth inhibition>
75% (active)

$$$$
>  <Compound>
C[CH2][Sn]([O][Sn]([Cl])([CH2]C)[c]1ccccc1)[c]1ccccc1 (stereo unspecified)

>  <growth inhibition>
98% (active)

$$$$

The reported value for `COc1cc(/C=C(\C)[N+](=O)[O-])cc(Br)c1O` in terms of growth inhibition is 82% (active)

The reported value for CCC[CH2][Sn]1([CH2]CCC)[O]CC(COc2c(Cl)cc(Cl)cc2Cl)[O]1 (stereo unspecified) in terms of growth inhibition is 92% (active)

The reported value for `O=C1C(Cl)=C(Cl)C(=O)c2ccccc21` in terms of growth inhibition is 98% (active)

###

- Protocol Notes: NCI Yeast Anticancer Drug Screen. Data for the bub3 strain (AID 167)
- Reported Conditions: S. cerevisiae bub3 mutant strain, at 50.0 µM, hits give high values
This is part of a sample that, as a whole, favours compounds with a hit. Of some 79,000 tested, about 15% had one in any assay.
Assay Readout: growth inhibition (%)
Enter your answer as a number in %; do not include the unit.

Worked cases, growth inhibition given:
>  <Molecule>
O=C(Nc1ccccc1)C(Cl)(Cl)Cl

>  <Measurement Unit>
%

>  <growth inhibition>
-9.8

$$$$
>  <Molecule>
O=C(CS(=O)(=O)O)Nc1ccccc1

>  <Measurement Unit>
%

>  <growth inhibition>
17.1

$$$$
>  <Molecule>
CC1(CCN)COC(c2ccccc2)(c2ccccc2)OC1 (tested in a mixture with another compound)

>  <Measurement Unit>
%

>  <growth inhibition>
10.2

$$$$
>  <Molecule>
COc1ccc(NC(=O)C(=O)C(CC2C(=O)NC(=S)NC2=O)C(=O)c2ccc3ccccc3c2)c([N+](=O)[O-])c1 (stereo not given)

>  <Measurement Unit>
%

>  <growth inhibition>
31.2

$$$$
>  <Molecule>
COC1=CCC2=C(CC[C@H]3[C@H]2CCP3C)C1 (stereo not given in full)

>  <Measurement Unit>
%

>  <growth inhibition>
0.9

$$$$
>  <Molecule>
S=C(SSC(=S)N(Cc1ccccc1)Cc1ccccc1)N(Cc1ccccc1)Cc1ccccc1

>  <Measurement Unit>
%

>  <growth inhibition>
-20.6

$$$$
>  <Molecule>
COC([CH2][Hg])CN1C(=O)c2cc(C)c(C)cc2C1=O (stereo not given)

>  <Measurement Unit>
%

>  <growth inhibition>
98.7

$$$$
>  <Molecule>
O=C(O)C1CC2c3ccccc3C1([N+](=O)[O-])c1ccccc12 (stereo not given)

>  <Measurement Unit>
%

>  <growth inhibition>
3.5

$$$$

The reported value for Nc1ccccc1O.O.O=C(O)C1[O][Sb][O]C1C(=O)O (stereo not given) in terms of growth inhibition is 82.4

The reported value for `Nc1ccc([N+](=O)[O-])cc1[N+](=O)[O-]` in terms of growth inhibition is 0.6
